Assay target: human thrombin (Homo sapiens)
Quantity name: Ki (nM)
Answer with a number only, understood to be in nM.

In: Lab note: need Ki for O=C(NCC1CCc2n[nH]cc2C1)[C@@H]1CCCN1C(=O)[C@@H](CC1CCCCC1)NS(=O)(=O)Cc1ccccc1 (stereo partly shown) [drawing 92] on human thrombin (Homo sapiens), anyone have it?
Out: 140

In: Lab note: need Ki for Nc1nc2c(s1)CC(NC(=O)[C@@H]1CCCN1C(=O)[C@@H](Cc1ccccc1)NS(=O)(=O)Cc1ccccc1)CC2 (stereo partly shown) [drawing 96] on human thrombin (Homo sapiens), anyone have it?
Out: 620

In: Lab note: need Ki for Nc1nc2c(s1)CC(NC(=O)[C@@H]1CCCN1C(=O)[C@@H](CC1CCCCC1)NS(=O)(=O)Cc1ccccc1)CC2 (stereo partly shown) [drawing 91] on human thrombin (Homo sapiens), anyone have it?
Out: 120

In: Lab note: need Ki for Nc1nc2c(s1)CC(CNC(=O)[C@@H]1CCCN1C(=O)[C@@H](CC1CCCCC1)NS(=O)(=O)Cc1ccccc1)CC2 (stereo partly shown) [drawing 95] on human thrombin (Homo sapiens), anyone have it?
Out: 370

Source listed as patent US7112590B2.
